# protocol notes: gradient 5% acetonitrile 3 min, to 50% in 2 min, to 85% in 15 min, held 3 min, 100 µL/min
# condition: column: Zorbax Extend-C18 2.1 x 50 mm; eluents: water / acetonitrile, 0.1% formic acid
RP-LC retention time values by entry
result type: RP-LC retention time

compound="COc1ccc2c(c1)CC(NC(=O)NCc1ccc(OC)cc1OC)CO2 (stereo not drawn)" result_type="RP-LC retention time" data_value="780 s"
compound="O=C(CCCc1ccccc1)N1CCC(c2noc(-c3cnccn3)n2)C1 (stereo not drawn)" result_type="RP-LC retention time" data_value="776 s"
compound=Cc1ccc(CN2CCN(C3CCN(C(=O)Nc4ccccc4C(F)(F)F)CC3)C(=O)C2=O)cc1 result_type="RP-LC retention time" data_value="810 s"

Just for reference, the METLIN SMRT retention time set (Domingo-Almenara et al. 2019) is where these values come from.
